Target: STAT6 (Homo sapiens, UniProt P42226)
Sequence (P42226 1-847): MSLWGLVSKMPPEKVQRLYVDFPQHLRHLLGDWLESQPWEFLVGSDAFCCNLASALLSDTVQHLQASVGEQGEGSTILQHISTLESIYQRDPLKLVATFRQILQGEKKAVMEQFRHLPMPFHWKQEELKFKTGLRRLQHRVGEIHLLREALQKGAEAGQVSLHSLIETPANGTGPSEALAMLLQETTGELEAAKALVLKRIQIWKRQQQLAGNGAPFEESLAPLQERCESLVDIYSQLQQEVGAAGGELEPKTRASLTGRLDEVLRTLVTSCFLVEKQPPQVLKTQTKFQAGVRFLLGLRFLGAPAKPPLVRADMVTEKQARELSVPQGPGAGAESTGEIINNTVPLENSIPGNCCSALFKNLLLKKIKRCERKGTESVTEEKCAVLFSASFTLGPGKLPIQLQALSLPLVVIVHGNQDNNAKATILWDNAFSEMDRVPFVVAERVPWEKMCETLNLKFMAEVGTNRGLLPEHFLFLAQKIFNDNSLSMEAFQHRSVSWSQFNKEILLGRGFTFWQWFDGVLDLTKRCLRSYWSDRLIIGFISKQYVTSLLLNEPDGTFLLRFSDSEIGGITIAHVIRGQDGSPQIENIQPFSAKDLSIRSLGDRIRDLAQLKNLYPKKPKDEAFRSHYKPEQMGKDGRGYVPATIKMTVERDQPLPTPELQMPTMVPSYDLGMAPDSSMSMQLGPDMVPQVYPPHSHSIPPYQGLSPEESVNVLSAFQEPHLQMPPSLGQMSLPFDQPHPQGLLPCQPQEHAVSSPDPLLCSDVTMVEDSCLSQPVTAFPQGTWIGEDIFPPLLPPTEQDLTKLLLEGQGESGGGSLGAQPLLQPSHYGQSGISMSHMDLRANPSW
pKi: −log10 of the molar value.

>  <Compound>
O=P(O)(O)Oc1ccc2c(c1)oc1ccccc12 [compound 12]

>  <pKi>
4.59

$$$$
>  <Compound>
O=P(O)(O)Oc1ccc(-c2ccsc2)cc1 [8a]

>  <pKi>
5.11

$$$$
>  <Compound>
Cc1cc(-c2ccc(OP(=O)(O)O)c(F)c2)cs1 [8f]

>  <pKi>
4.77

$$$$
>  <Compound>
O=P(O)(O)Oc1ccc(-c2cccs2)cc1 [8b]

>  <pKi>
5.03

$$$$
>  <Compound>
O=P(O)(O)Oc1ccc(-c2nccs2)cc1 [8c]

>  <pKi>
4.26

$$$$
>  <Compound>
O=P(O)(O)Oc1ccc(-c2cccc3ccccc23)cc1 [compound 10]

>  <pKi>
5.03

$$$$
>  <Compound>
O=P(O)(O)Oc1ccc2c(c1)Cc1ccccc1-2 [compound 11]

>  <pKi>
4.92

$$$$

====

Target: STAT5b (Homo sapiens, UniProt P51692)
Sequence (P51692 whole entry, species assumed): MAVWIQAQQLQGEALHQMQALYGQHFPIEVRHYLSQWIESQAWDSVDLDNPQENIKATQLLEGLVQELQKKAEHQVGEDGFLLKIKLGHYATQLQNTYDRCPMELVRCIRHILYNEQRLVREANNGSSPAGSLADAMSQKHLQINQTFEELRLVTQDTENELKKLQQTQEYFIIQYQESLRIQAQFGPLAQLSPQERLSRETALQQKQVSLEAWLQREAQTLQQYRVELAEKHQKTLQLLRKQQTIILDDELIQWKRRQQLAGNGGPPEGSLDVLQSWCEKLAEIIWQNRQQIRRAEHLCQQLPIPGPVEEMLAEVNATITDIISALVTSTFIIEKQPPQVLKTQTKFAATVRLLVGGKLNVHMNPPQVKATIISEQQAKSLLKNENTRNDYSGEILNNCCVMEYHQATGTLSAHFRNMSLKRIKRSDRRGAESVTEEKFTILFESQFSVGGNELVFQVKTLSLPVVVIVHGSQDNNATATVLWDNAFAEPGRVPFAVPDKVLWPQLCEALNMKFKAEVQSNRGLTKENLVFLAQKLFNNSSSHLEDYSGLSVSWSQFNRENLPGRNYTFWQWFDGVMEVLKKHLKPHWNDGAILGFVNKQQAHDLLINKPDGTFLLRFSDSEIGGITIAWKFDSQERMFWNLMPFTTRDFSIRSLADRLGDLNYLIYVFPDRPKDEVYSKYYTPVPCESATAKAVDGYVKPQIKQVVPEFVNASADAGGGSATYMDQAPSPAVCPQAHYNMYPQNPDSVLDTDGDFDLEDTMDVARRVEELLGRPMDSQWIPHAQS
Test Readout: IC50 (µM)

>  <Compound>
O=P(O)(O)Oc1ccc(-c2cccc3ccccc23)cc1 [compound 10]

>  <Test Readout>
IC50

>  <Numeric Result>
89

$$$$
>  <Compound>
O=P(O)(O)Oc1ccc(-c2cccs2)cc1 [8b]

>  <Test Readout>
IC50

>  <Numeric Result>
16.8

$$$$
>  <Compound>
O=P(O)(O)Oc1ccc2c(c1)Cc1ccccc1-2 [compound 11]

>  <Test Readout>
IC50

>  <Numeric Result>
101

$$$$
>  <Compound>
O=P(O)(O)Oc1ccc(-c2ccsc2)cc1 [8a]

>  <Test Readout>
IC50

>  <Numeric Result>
47

$$$$
>  <Compound>
Cc1cc(-c2ccc(OP(=O)(O)O)c(F)c2)cs1 [8f]

>  <Test Readout>
IC50

>  <Numeric Result>
36

$$$$
